Molecular target: Aldo-keto reductase family 1 member C3 (Homo sapiens)
Sequence (P42330 whole entry): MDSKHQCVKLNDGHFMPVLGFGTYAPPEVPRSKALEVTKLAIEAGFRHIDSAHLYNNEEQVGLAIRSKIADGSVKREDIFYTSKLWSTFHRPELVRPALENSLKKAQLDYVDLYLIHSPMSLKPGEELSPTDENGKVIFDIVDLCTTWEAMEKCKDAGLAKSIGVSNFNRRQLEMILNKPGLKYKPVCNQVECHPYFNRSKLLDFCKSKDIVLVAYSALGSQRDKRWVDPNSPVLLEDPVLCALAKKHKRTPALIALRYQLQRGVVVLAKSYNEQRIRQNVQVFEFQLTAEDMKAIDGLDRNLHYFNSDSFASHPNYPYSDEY
Experiment: Inhibition of N-terminal GST-tagged recombinant human AKR1C3 expressed in Escherichia coli BL21 (DE) Codon Plus RP cells assessed as reduction in NADPH production using S-tetralol as substrate in presence of NADP+ by fluorimetry assay
measured-endpoint: IC50 (µM)
Write the value in µM as a bare number.

Below, each entry is followed by its recorded IC50 result.
## Input Reported IC50 for CCOC(=O)c1cc2c(cc1C(=O)OCC)CN1C(=O)CCC1C2 (centres undefined) : what is it?
## Output 11.7

## Input Endpoint output: IC50 of O=C(O)c1cc2c(cc1C(=O)O)CN1C(=O)CCC1C2 (centres undefined) . Value?
## Output 23.1

***
## Input Request the reported IC50 associated with COc1ccc2cc3[n+](cc2c1OC)CCc1cc2c(cc1-3)OCO2
## Output 5.9

---

Target: Aldo-keto reductase family 1 member C2 (Homo sapiens)
Sequence (P52895 whole entry): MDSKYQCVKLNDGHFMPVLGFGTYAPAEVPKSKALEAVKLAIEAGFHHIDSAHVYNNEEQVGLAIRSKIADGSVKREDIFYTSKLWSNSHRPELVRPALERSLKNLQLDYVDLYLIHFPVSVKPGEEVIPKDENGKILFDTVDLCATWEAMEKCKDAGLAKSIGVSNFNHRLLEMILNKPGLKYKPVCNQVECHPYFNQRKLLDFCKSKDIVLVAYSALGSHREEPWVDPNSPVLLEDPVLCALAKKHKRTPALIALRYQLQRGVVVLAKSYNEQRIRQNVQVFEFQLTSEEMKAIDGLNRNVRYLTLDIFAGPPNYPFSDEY
Assay: Inhibition of N-terminal GST-tagged recombinant human AKR1C2 expressed in Escherichia coli BL21 (DE) Codon Plus RP cells assessed as reduction in NADPH production using S-tetralol as substrate in presence of NADP+ by fluorimetry assay
measured-endpoint: IC50 (µM)
Kindly answer with a numeric value in µM, unit omitted.

Reference set, count: 2
## Input Name the reported IC50 value associated with the compound COc1ccc2cc3[n+](cc2c1OC)CCc1cc2c(cc1-3)OCO2 [BERBERINE]
## Output 6.71

## Input Which IC50 is listed for CCOC(=O)c1cc2c(cc1C(=O)OCC)CN1C(=O)CCC1C2 (centres undefined) ?
## Output 96.2

Then this compound:
## Input Need IC50, item O=C(O)c1cc2c(cc1C(=O)O)CN1C(=O)CCC1C2 (centres undefined)
## Output 27.3
